Molecular target: MK2 (Homo sapiens, UniProt P49137)
Sequence (P49137 whole entry): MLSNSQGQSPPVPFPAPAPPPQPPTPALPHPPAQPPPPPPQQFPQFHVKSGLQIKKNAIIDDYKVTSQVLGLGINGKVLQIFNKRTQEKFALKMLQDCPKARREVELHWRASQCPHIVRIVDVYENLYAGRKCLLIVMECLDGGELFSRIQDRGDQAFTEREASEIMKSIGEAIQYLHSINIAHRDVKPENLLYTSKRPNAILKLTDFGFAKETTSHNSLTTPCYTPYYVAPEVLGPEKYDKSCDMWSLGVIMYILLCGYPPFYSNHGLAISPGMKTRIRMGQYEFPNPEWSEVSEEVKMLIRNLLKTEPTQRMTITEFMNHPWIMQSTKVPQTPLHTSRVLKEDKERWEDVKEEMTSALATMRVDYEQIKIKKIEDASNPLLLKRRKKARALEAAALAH
Test: MK2 degradation in human THP-1 monocytic cells (MSD, 24 h)
Assay type: cell-based
Design: endogenous in cells
Conditions: THP-1, THP-1 cells
OBSERVATION_TYPE: Dmax

COMPOUND: C[C@@H]1CN(C)c2c(sc3ccc4nc(-c5ccc(N6CCN(CC7CN(c8ccc9c(c8)n(C)c(=O)n9C8CCC(=O)NC8=O)C7)CC6)nc5)ccc4c23)C(=O)N1 (stereo partly drawn) [Compound I-412]
SYSTEM_UNDER_TEST: MK2 (Homo sapiens, UniProt P49137)
Dmax: > 75%

COMPOUND: COc1cc(-c2ccc3c(ccc4sc5c(c43)NC[C@@H](C)NC5=O)n2)cc(N2CCN(CC3CCN(c4ccc5c(c4)n(C)c(=O)n5C4CCC(=O)NC4=O)CC3)CC2)c1 (stereo partly drawn) [Compound I-239]
SYSTEM_UNDER_TEST: MK2 (Homo sapiens, UniProt P49137)
Dmax: > 75%

COMPOUND: Cn1c(=O)n(C2CCC(=O)NC2=O)c2cccc(CCN3CCN(c4ccc(-c5cc(-c6cc7c([nH]6)C6(CC6)CNC7=O)ccn5)cn4)CC3)c21 (stereo not drawn) [Compound I-200]
SYSTEM_UNDER_TEST: MK2 (Homo sapiens, UniProt P49137)
Dmax: > 75%

COMPOUND: C[C@@H]1Cc2[nH]c(-c3ccnc(-c4ccc(N5CCC(CN6CCC(c7cccc8c7n(C)c(=O)n8C7CCC(=O)NC7=O)CC6)CC5)cc4)c3)cc2C(=O)N1 (stereo partly drawn) [Compound I-248]
SYSTEM_UNDER_TEST: MK2 (Homo sapiens, UniProt P49137)
Dmax: > 75%

I am curious: what Dmax value has been reported for Cc1nc(N2CCN(CC3CCN(c4ccc5c(c4)n(C)c(=O)n5C4CCC(=O)NC4=O)CC3)CC2)ccc1-c1ccc2c(ccc3sc4c(c32)NC[C@@H](C)NC4=O)n1 (stereo partly drawn) [Compound I-283] ?
> 75%

Given the entry C[C@@H]1CNc2c(sc3ccc4nc(N5CCC(N6CC7(CCN(c8ccc9c(c8)n(C)c(=O)n9C8CCC(=O)NC8=O)CC7)C6)CC5)ccc4c23)C(=O)N1 (stereo partly drawn) [Compound I-440] , report its measured Dmax.
> 75%

====

Molecular target: UniProt P49137
Assay: MK2 degradation in human THP-1 monocytic cells (MSD, 24 h)
Type: cell-based
Parameters: endogenous in cells
Settings: THP-1 cells, read-out: MK2 MSD THP-1 degradation 24 h GMean External Abs DC50
OBSERVATION_TYPE: DC50

Examples with their reported DC50 follow.
MOLECULE: C[C@@H]1CNc2c(sc3ccc4nc(-c5ccc(N6CCN(CC7CN(c8ccc9c(c8)n(C)c(=O)n9C8CCC(=O)NC8=O)C7)CC6)cc5F)ccc4c23)C(=O)N1 (some centres unmarked) [Compound I-237]
DC50: < 1 nM

MOLECULE: Cn1c(=O)n(C2CCC(=O)NC2=O)c2ccc(N3CCC(CN4CCN(c5ccc(-c6cc(-c7cc8c([nH]7)C7(CC7)CNC8=O)ccn6)cn5)CC4)CC3)cc21 (centres unmarked) [Compound I-243]
DC50: < 1 nM

MOLECULE: C[C@@H]1CNc2c(sc3ccc4nc(-c5ccc(N6CCC(CN7CCN(c8ccc9c(c8)n(C)c(=O)n9C8CCC(=O)NC8=O)CC7)CC6)cc5Cl)ccc4c23)C(=O)N1 (some centres unmarked) [Compound I-292]
DC50: < 1 nM

# query: DC50 of entry Cn1c(=O)n(C2CCC(=O)NC2=O)c2ccc(N3CCC(CN4CCN(c5ccc(-c6nccc(-c7cc8c([nH]7)C7(CC7)CNC8=O)n6)cc5)CC4)CC3)cc21 (centres unmarked) [Compound I-428]
1 to 10 nM

Which DC50 is reported for this molecule? C[C@@H]1CNc2c(sc3ccc4nc(-c5cncc(N6CCN(CCCc7ccc8c(c7)n(C)c(=O)n8C7CCC(=O)NC7=O)CC6)c5)ccc4c23)C(=O)N1 (some centres unmarked) [Compound I-157]
< 1 nM

May I ask what DC50 has been recorded for Cn1c(=O)n(C2CCC(=O)NC2=O)c2ccc(N3CCC(CN4CCN(c5cc(-c6ccc7cc[nH]c7c6)cc(-c6cc(-c7cc8c([nH]7)CCNC8=O)ccn6)c5)CC4)CC3)cc21 (centres unmarked) [Compound I-206] ?
1 to 10 nM

Which measured DC50 value corresponds to Cn1c(=O)n(C2CCC(=O)NC2=O)c2cccc(CCN3CCN(c4ccc(-c5cc(-c6cc7c([nH]6)C6(CC6)CNC7=O)ccn5)cc4)CC3)c21 (centres unmarked) [Compound I-203] ?
1 to 10 nM

So what's the measured DC50 for this one? C[C@@H]1CNc2c(sc3ccc4nc(N5C[C@H]6CC[C@@H]5CN6CC5CCN(c6cccc7c6n(C)c(=O)n7C6CCC(=O)NC6=O)CC5)ccc4c23)C(=O)N1 (some centres unmarked) [Compound I-452]
10 to 100 nM

Query: DC50; subject: Cn1c(=O)n(C2CCC(=O)NC2=O)c2cccc(CCN3CCN(c4ccc(-c5cc(-c6cc7c([nH]6)C6(CC6)CNC7=O)ccn5)cn4)CC3)c21 (centres unmarked) [Compound I-200]
1 to 10 nM

What value of measured DC50 is listed for COc1ccc2c(c1N1CCC(CN3CCN(c4ccc(-c5ccc6c(ccc7sc8c(c76)NC[C@@H](C)NC8=O)n5)cn4)CC3)CC1)n(C)c(=O)n2C1CCC(=O)NC1=O (some centres unmarked) [Compound I-255] ?
1 to 10 nM

Which value of DC50 has been reported for Cn1c(=O)n(C2CCC(=O)NC2=O)c2cccc(N3CCC(CN4CCC5(CC4)CNC(=O)c4c5[nH]c5c4CCc4cnc(-c6ccccc6F)cc4-5)CC3)c21 (centres unmarked) [Compound I-316] in the records?
> 100 nM

====

Target: MK2 (Homo sapiens, UniProt P49137)
Assay: MK2 degradation in human SW1353 cells (MSD, 24 h)
Assay type: cell-based
Set-up: endogenous in cells; host or cells: SW-1353 (ATCC HTB-94)
Settings: read-out: MK2 MSD SW1353 degradation 24 h GMean External Abs DC50
Procedure: MK2 Degradation in Human SW1353 Cells […] After 3 more washes, the secondary detection antibody (SULFO-Tag anti rabbit antibody R32AB-5) was added at a final concentration of 1 microgram per ml at 25 microlitres per well and shaken at room temperature for 1 hour at 600 rpm. After 3 more washes, the 1×MSD (diluted from 5× concentrate with water) reading buffer was added at 150 microlitres per well and read on the MSD instrument Meso Sector S 600. […]
OBSERVATION_TYPE: DC50

Reference set, count: 6
MOLECULE: Cn1c(=O)n(C2CCC(=O)NC2=O)c2ccc(N3CCC(CN4CCN(c5ccc6cc(-c7cc(Nc8ccnc(N)n8)cc8cn[nH]c78)oc6c5)CC4)CC3)cc21 (stereo not drawn)
DC50: > 0.1 µM
--
MOLECULE: C[C@@H]1CNc2c(sc3ccc4nc(N5CCC6(CC5)CN(C5CCN(c7cccc8c7n(C)c(=O)n8C7CCC(=O)NC7=O)CC5)C6)ccc4c23)C(=O)N1 (stereo partly drawn)
DC50: < 0.001 µM
--
MOLECULE: Cc1nc(N2CCN(CCCc3ccc4c(c3)n(C)c(=O)n4C3CCC(=O)NC3=O)CC2)ccc1-c1ccc2c(ccc3sc4c(c32)NC[C@@H](C)NC4=O)n1 (stereo partly drawn)
DC50: 0.001 to 0.01 µM
--
MOLECULE: CCc1cc(-c2cc(-c3cc4c([nH]3)CCNC4=O)ccn2)cc(CC)c1N1CCN(CC2CCN(c3ccc4c(c3)n(C)c(=O)n4C3CCC(=O)NC3=O)CC2)CC1 (stereo not drawn)
DC50: 0.01 to 0.1 µM
--
MOLECULE: C[C@@H]1CNc2c(sc3ccc4nc(-c5ccc(N6CCN(CC7CCN(c8ccc9c(c8)CN(C8CCC(=O)NC8=O)C9=O)CC7)CC6)cc5)ccc4c23)C(=O)N1 (stereo partly drawn)
DC50: 0.001 to 0.01 µM
--
MOLECULE: C[C@@H]1CNc2c(sc3ccc4nc(-c5cccc(N6CCN(CCCCCCCCCCc7ccc8c(c7)n(C)c(=O)n8C7CCC(=O)NC7=O)CC6)c5)ccc4c23)C(=O)N1 (stereo partly drawn)
DC50: 0.01 to 0.1 µM

// fetch MK2 (Homo sapiens, UniProt P49137) DC50 for Cn1c(=O)n(C2CCC(=O)NC2=O)c2ccc(CCCN3CCN(c4cccc(-c5ccc(-c6cc7c([nH]6)CCNC7=O)cn5)c4)CC3)cc21 (stereo not drawn)
> 0.1 µM

Fill in the recorded DC50 for this molecule, with MK2 (Homo sapiens, UniProt P49137) as test system: C[C@@H]1CNc2c(sc3ccc4nc(-c5cccc(N6CCN(CCCc7ccc8c(c7)n(C)c(=O)n8C7CCC(=O)NC7=O)CC6)c5)ccc4c23)C(=O)N1 (stereo partly drawn)
< 0.001 µM

Give MK2 (Homo sapiens, UniProt P49137) DC50 for C[C@@H]1CNc2c(sc3ccc4nc(N5C6CCC5CN(CC5CCN(c7ccc8c(c7)n(C)c(=O)n8C7CCC(=O)NC7=O)CC5)C6)ccc4c23)C(=O)N1 (stereo partly drawn)
> 0.1 µM
